Values from patent US20260193326A1

# targetOfAssay: T1, AAV8 (adeno-associated virus 8)
# T1 construct: also called adeno-associated virus serotype 8
# methodNotes: SPR, AAV amine-coupled to CM5 chip;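 also: nanobodies flowed as analyte at seven concentrations spanning 1–100 nM over immobilized AAV (500–800 RU), kinetic constants derived by fitting the binding curves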
Below, each entry is listed with its recorded kon.
Output spec: scalar in M⁻¹ s⁻¹, unitless text.

Examples with answers:
Data request: For A4-089 (VHH) VHH: VQLQESGGGLVQPGGSLRLSCAASGSNFSINTMGWYRQAPGKQRELVATFTRAGNTNYADSVKGRFTISRDNGKNTVYLQMNSLRPEDTAVYYCHVDEVRDSSWTTSNLWGQGTQVTVSS , what is its reported kon?
Data returned: 121000

Data request: Please answer likewise for A4-073 (VHH) VHH: VQLQESGGGLVQPGGSLRLSCAASGSNFSINTMGWYRQAPGKQREMVATVTRGGSTNYGDFVKGRFTISRDNAKNTVYLQMNSLRPEDTAVYYCHVDEIRQSSWTTSNIWGQGTQVTVSS
Data returned: 5420

Data request: Please answer likewise for A4-074 (VHH) VHH: VQLQESGGGLVQSGGSLRLSCAASGSMFSLNTMGWYRQAPGKQRELVATITRGGGTSYADSVKGRFTISRDNAKNTVYLQMNSLRPEDTAVYYCHVDELRQSSWTTSNLWGQGTQVTVSS
Data returned: 94100

***
Data request: For A4-075 (VHH) VHH: VQLQESGGGLVQSGGSLRLSCAASGSMFSLNTMGWYRQAPGKQRELVATITRGGGTNYADSVKGRFTISRDNAKNTVYLQMNSLRPEDTAVYYCHVDELRQSSWTTSNLWGQGTQVTVSS , what is its reported kon?
Data returned: 70000
